Would you mind telling me the reported TGI of each entry?
test system: SK-MEL-5 melanoma; experiment: NCI tumour cell line growth inhibition, 48 h
Give just the numeric value; µM need not be written.

**Q:** Fill in the blank: the reported TGI of `COC(=O)[C@H]1[C@@H](O)[C@@]2(O)c3c(OC)cc(O[C@@H]4O[C@@H]([C@H](O)CO)CO[C@H]4OC)cc3O[C@@]2(c2ccc(OC)cc2)[C@@H]1c1ccccc1` is ____.
**A:** 0.0494

**Q:** Follow-up entry: `COc1ccc(/C=C/C(=O)C(C)(C)CN2CCCCC2)cc1`
**A:** 35.5

**Q:** Follow-up entry: CC1=C(C#N)C23C(=O)c4ccccc4C(O)=C2C(=O)C=CC3(O)N1 (stereo not given)
**A:** 2.75

**Q:** Follow-up entry: `CCOC(=O)Cc1nc2ccccc2s1`
**A:** 48.5

**Q:** Follow-up entry: `NC(=NCCCC1(c2ccccc2)CCCC1)Nc1ccc(Cl)cc1`
**A:** 2.93

**Q:** Follow-up entry: `CC1=C(C(=O)Nc2ccccc2C)C(c2ccc(C3C(C(=O)Nc4ccccc4C)=C(C)NC(C)=C3C(=O)Nc3ccccc3C)cc2)C(C(=O)Nc2ccccc2C)=C(C)N1`
**A:** 24.6

**Q:** Follow-up entry: `O=Nc1c(-c2c(O)[nH]c3ccccc23)[nH]c2ccccc12`
**A:** 26.4

**Q:** Follow-up entry: `O=C1/C(=C\c2ccc(F)cc2)CN(C(=O)c2ccc([N+](=O)[O-])cc2)C/C1=C\c1ccc(F)cc1`
**A:** 3.84

**Q:** Follow-up entry: `Cc1nc2c(O)cc3c4c(=O)n(C)c(=O)n(C)c4n(Cc4ccccc4)c3c2nc1C`
**A:** 32.8

**Q:** Follow-up entry: `COc1c(C)c2c(c3c1c(=O)c1ccccc1n3C)C=CC(C)(C)O2`
**A:** 31.1
